# tgt: T1, DFNB31_3, Q9P202
# T1 sequence (Q9P202 811-907, limits assumed, looked up): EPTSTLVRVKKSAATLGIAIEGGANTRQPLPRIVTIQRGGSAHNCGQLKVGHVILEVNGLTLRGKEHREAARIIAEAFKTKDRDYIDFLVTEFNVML
# assay.procedure: holdup assay
# Set-up: key: below the threshold = too weak to quantify, mostly under pKd 3.1 to 4
# condition.notes: plain residues with an end cap or a label only (N-terminal biotin on a linker: ado-ado)
recorded.endpoint: pKd
Reply with the value as a number alone.

GDSSRKEYFI [GYPC, P04921]
3.81
IKLETKKTKL [SLC15A2, Q16348]
4.16
VCMGDHWFDV [PRKN, O60260]
3.54
NISARRFTLC [FAM167B, Q9BTA0]
3.99
QKNKDREYYV [NRXN3, Q9HDB5]
3.97

Record DAAHHDESNC [FMNL3, Q8IVF7] , field pKd: 3.99

Record TKEIPNCTSV [SORCS3, Q9UPU3] , field pKd: 4.05
